- Test system: HL60 cells
- experiment summary: Anti-proliferation ability of compounds on HL60 cells (CellTiter-Glo)
- Type: cell-based
- test parameters: Homo sapiens, HL-60, 72 h, incubated 3 days, CTG luminescence, IC50 calculated by XLfit
pIC50: −log10 of the molar value.
reported property: pIC50

[a] O=C1CCC(N2Cc3cc(NC(=O)CC4CCN(c5ncc(Br)cc5CO)CC4)ccc3C2=O)C(=O)N1 (centres unmarked)
[b] O=C1CCC(N2Cc3cc(CNC(=O)c4ccc(CN5CCN(c6ccc(CO)c(Cl)c6)CC5)cc4)ccc3C2=O)C(=O)N1 (centres unmarked)
[c] NCCOc1cc(-c2cccc3cccnc23)cnc1N1CCC(CC(=O)Nc2ccc3c(c2)CN(C2CCC(=O)NC2=O)C3=O)CC1 (centres unmarked)
query: Please list the entries, largest pIC50 first. Returns: the labels listed in the requested order.
result: b, a, c

Data provenance: patent US20260055077A1
